Hey, just so you know, these numbers are from ChEMBL document CHEMBL2046304.

Field: pIC50. Provide a value for each of the molecules that follow.
- System: PC-3
- ASSAY NAME: Cytotoxicity against androgen-independent human PC3 cells after 72 hrs by SRB assay
- Format: functional, cell-based
- REPORTED CONDITIONS: PC-3, 72 h
pIC50: −log10 of the molar value.

Complete the entry with pIC50 for `COc1ccc(/C=C/C(=O)/C=C(O)/C=C/c2ccc(OC(C)(C)C(=O)Nc3ccc(Cl)c(C(F)(F)F)c3)c(OC)c2)cc1OC`
< 4.00

# return recorded pIC50 for input `COc1cc(/C=C/C(=O)/C=C(O)/C=C/c2ccc(OC(C)(C)C(=O)Nc3ccc(C)c(C(F)(F)F)c3)c(OC)c2)ccc1O`
< 4.00

Please give the documented pIC50 of `COc1cc(/C=C/C(=O)/C=C(O)/C=C/c2ccc(OC(C)(C)C(=O)Nc3ccc([N+](=O)[O-])c(C(F)(F)F)c3)c(OC)c2)ccc1O`
< 4.00

Note down pIC50 recorded for `COc1ccc(/C=C/C(=O)/C=C(O)/C=C/c2ccc(OCCCCCCCCCCC(=O)Nc3ccc(C#N)c(C(F)(F)F)c3)c(OC)c2)cc1OC`
< 4.00

Report measured pIC50; entry is `COc1cc(/C=C/C(=O)/C=C(O)/C=C/c2ccc(OC(C)(C)C(=O)Nc3ccc(Cl)c(C(F)(F)F)c3)c(OC)c2)ccc1O`
< 4.00

List the reported pIC50 of each molecule below.
1. COc1ccc(/C=C/C(=O)/C=C(O)/C=C/c2ccc(OCCCC(=O)Nc3ccc(C#N)c(C(F)(F)F)c3)c(OC)c2)cc1OC
2. COc1ccc(/C=C/C(=O)/C=C(O)/C=C/c2ccc(OC(C)(C)C(=O)Nc3ccc(C#N)c(C(F)(F)F)c3)c(OC)c2)cc1OC

1. < 4.00
2. < 4.00

Look up and report measured pIC50 for this entry: `COc1ccc(/C=C/C(=O)/C=C(O)/C=C/c2ccc(OC(C)(C)C(=O)Nc3ccc([N+](=O)[O-])c(C(F)(F)F)c3)c(OC)c2)cc1OC`
< 4.00
